B1: library; a variant is named by its letters at N, in order (parent)
chain: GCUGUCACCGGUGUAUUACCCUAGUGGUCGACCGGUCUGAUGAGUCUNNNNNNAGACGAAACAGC

Variants of: B1
Assay procedure: normalized RNA/DNA level without ligand (relative to sTRSVctl = 100) (log10 (% of sTRSVctl)); ligand: hypoxanthine (xanthine aptamer); higher = less ribozyme self-cleavage, higher mRNA level
Condition details: HEK293T, reporter: mCherry (pCS4076), ligand present: no
Parameter: normalized RNA/DNA level without ligand (log10)
Please state the value as a number alone, without comment.

Query string: For UAGGAU , what is its reported normalized RNA/DNA level without ligand (log10)?
Result string: 1.66

Query string: Which value of normalized RNA/DNA level without ligand (log10) has been reported for ACUGCA in the records?
Result string: 1.83

Query string: Recorded normalized RNA/DNA level without ligand (log10) for UCAAAC , please?
Result string: 1.85

Query string: // query normalized RNA/DNA level without ligand (log10) value for entry AUAGGG
Result string: 1.38

Query string: Data request, read-out normalized RNA/DNA level without ligand (log10), for GAUUUG
Result string: 1.45

Query string: May I ask what normalized RNA/DNA level without ligand (log10) has been recorded for GACUUU ?
Result string: 1.91

Query string: I have this variant here, GUGAUG , and I need its recorded normalized RNA/DNA level without ligand (log10).
Result string: 1.34

Query string: Quick check: normalized RNA/DNA level without ligand (log10) of AAAGAG ?
Result string: 1.32

Query string: Need normalized RNA/DNA level without ligand (log10) of ACGGUC , thanks.
Result string: 1.87

Query string: Quick check: normalized RNA/DNA level without ligand (log10) of AUGUAU ?
Result string: 1.73

Query string: Entry UCACCA has what normalized RNA/DNA level without ligand (log10)?
Result string: 1.92

Query string: normalized RNA/DNA level without ligand (log10) lookup needed for GUCUCU , thanks.
Result string: 1.98

Query string: Could you share which normalized RNA/DNA level without ligand (log10) value was measured for AGUACC ?
Result string: 1.87

Query string: So what's the measured normalized RNA/DNA level without ligand (log10) for this one? UCCGGG
Result string: 1.93

Query string: Field request: normalized RNA/DNA level without ligand (log10) | item: UCGGUC
Result string: 1.97

Query string: I would be grateful if you could share the reported normalized RNA/DNA level without ligand (log10) for CACUCU .
Result string: 1.91

Query string: Which measured normalized RNA/DNA level without ligand (log10) value corresponds to AGAAGA ?
Result string: 1.53

Query string: Look up normalized RNA/DNA level without ligand (log10): GCGUAG
Result string: 1.15

Query string: Name the recorded normalized RNA/DNA level without ligand (log10) for UUUAGG .
Result string: 1.83

Query string: Item under review: GAUUCU . Reported normalized RNA/DNA level without ligand (log10)?
Result string: 1.92

Query string: Please report the recorded normalized RNA/DNA level without ligand (log10) for AUACUU .
Result string: 1.86
